Tested on: Wnt activity (Sp5-Luc reporter, human Sp5 promoter with eight TCF/LEF binding sites) in SW480 colon carcinoma cells
Assay: Screening assay for Wnt activity: Sp5-Luc reporter gene assay in SW480 cells
Assay type: cell-based
Settings: 10 μM, read-out: percent inhibition at 10 μM (given for EC50 of >10 μM)
Response key: TRUE means inhibition at 10 µM >= 9%; FALSE means inhibition at 10 µM < 9%.

>>> cat("COc1cccc(-c2cncc3[nH]c(-c4n[nH]c5ccc(-c6cncc(O)c6)nc45)nc23)c1")
"FALSE"

Does the compound CN(C)CCNc1cc(F)cc(-c2cncc3[nH]c(-c4n[nH]c5ccc(-c6cncc(OCCN7CCCC7)c6)nc45)nc23)c1 have recorded inhibition at 10 µM that is 9% or more? TRUE

Does the compound COc1cccc(-c2cncc3[nH]c(-c4n[nH]c5ccc(-c6cccnc6)nc45)nc23)c1 have recorded inhibition at 10 µM that is 9% or more? TRUE

Does the compound CC(C)(C)CC(=O)Nc1cncc(-c2ccc3[nH]nc(-c4nc5c(-c6ccccc6F)cncc5[nH]4)c3n2)c1 have recorded inhibition at 10 µM that is 9% or more? FALSE

Does the compound O=C(Nc1cncc(-c2ccc3[nH]nc(-c4nc5c(-c6ccccc6F)cncc5[nH]4)c3n2)c1)C1CCCC1 have recorded inhibition at 10 µM that is 9% or more? FALSE

Does the compound c1cc(-c2cncc3[nH]c(-c4n[nH]c5ccc(-c6cncc(OC7CCNCC7)c6)nc45)nc23)ccn1 have recorded inhibition at 10 µM that is 9% or more? TRUE

* * *

Test system: IL-6 in THP-1 cells
Test: Inhibition of IL-6 in LPS-stimulated THP-1 human monocyte cells (HTRF)
Assay type: cell-based
Settings: LPS, IL-6 HTRF, at 10 μM, read-out: percent inhibition in brackets (given for EC50 >10 μM)
Attribute: inhibition at 10 µM
# output: bare number, implied unit %

Example results:
>>> reading("Cc1cn(-c2cncc3[nH]c(-c4n[nH]c5ccc(-c6cncc(OCCN(C)C)c6)nc45)nc23)cn1 [Compound 599]")
22.5
>>> reading("O=C(Nc1cncc(-c2ccc3[nH]nc(-c4nc5c(-c6ccccc6F)cncc5[nH]4)c3n2)c1)C1CCCC1 [Compound 78]")
40.4
>>> reading("CC(C)CC(=O)Nc1cncc(-c2ccc3[nH]nc(-c4nc5c(-c6ccc(Cl)s6)cncc5[nH]4)c3n2)c1 [Compound 992]")
29.8

Field: next compound
Given item C1=C(c2ccc3[nH]nc(-c4nc5c(-c6ccc7c(c6)OCO7)cncc5[nH]4)c3n2)CCNC1 [Compound 1064] , the value recorded as its inhibition at 10 µM is 21.1

* * *

Test system: IL-6 in THP-1 cells
Experiment: Inhibition of IL-6 in LPS-stimulated THP-1 human monocyte cells (HTRF)
Assay type: cell-based
Details: LPS, IL-6 HTRF, at 10 μM, read-out: percent inhibition in brackets (given for EC50 >10 μM)
endpointLabel: inhibition at 10 µM (%)
# output: bare number, implied unit %

Example results:
>>> reading("CN1CCN(c2cncc3[nH]c(-c4n[nH]c5ccc(-c6cncc(NC(=O)C7CCCC7)c6)nc45)nc23)CC1 [Compound 246]")
0
>>> reading("CC(C)(C)C(=O)Nc1cncc(-c2ccc3[nH]nc(-c4nc5c(-c6ccc(F)cc6)cncc5[nH]4)c3n2)c1 [Compound 36]")
35.9
>>> reading("Cc1cn(-c2cncc3[nH]c(-c4n[nH]c5ccc(-c6cncc(CN7CCCC7)c6)nc45)nc23)cn1 [Compound 210]")
13

Form: item CN1CCN(c2cncc3[nH]c(-c4n[nH]c5ccc(-c6cnccn6)nc45)nc23)CC1 [Compound 620] ; test system IL-6 in THP-1 cells; inhibition at 10 µM: 30.6

Form: item CCNCc1cncc(-c2ccc3[nH]nc(-c4nc5c(-c6ccccn6)cncc5[nH]4)c3n2)c1 [Compound 146] ; test system IL-6 in THP-1 cells; inhibition at 10 µM: 20.1

Form: item O=C(Nc1cncc(-c2ccc3[nH]nc(-c4nc5c(-c6ccc(F)cc6)cncc5[nH]4)c3n2)c1)C1CCC1 [Compound 49] ; test system IL-6 in THP-1 cells; inhibition at 10 µM: 37.7

Form: item Cc1ccncc1-c1ccc2[nH]nc(-c3nc4c(-c5ccncc5)cncc4[nH]3)c2n1 [Compound 117] ; test system IL-6 in THP-1 cells; inhibition at 10 µM: 43.5

* * *

Attribute: inhibition at 10 µM
System: SW480 colon cancer cells
Test: Cell viability assay (CellTiter-Blue) in SW480 colon cancer cells
Assay type: cell-based
Details: Homo sapiens, 96 h, 10 μM, four days, CellTiter-Blue, read-out: percent inhibition at 10 μM (given for EC50 of >10 μM)
# output: bare number, implied unit %

Given item Cc1ncc(-c2ccc3[nH]nc(-c4nc5c(-c6cccc(F)c6)cncc5[nH]4)c3n2)s1 , the value recorded as its inhibition at 10 µM is 23.5

* * *

Attribute: inhibition at 10 µM
Tested on: Wnt activity (Sp5-Luc reporter, human Sp5 promoter with eight TCF/LEF binding sites) in SW480 colon carcinoma cells
Assay: Screening assay for Wnt activity: Sp5-Luc reporter gene assay in SW480 cells
Type: cell-based
Settings: 10 μM, read-out: percent inhibition at 10 μM (given for EC50 of >10 μM)
# output: bare number, implied unit %

Example results:
>>> reading("CS(=O)(=O)NCc1cc(F)cc(-c2cncc3[nH]c(-c4n[nH]c5ccc(-c6cncc(CNCc7ccccc7)c6)nc45)nc23)c1 [Compound 472]")
20.1
>>> reading("Cn1cc(-c2ccc3[nH]nc(-c4nc5c(-c6cccs6)cncc5[nH]4)c3n2)cn1 [Compound 656]")
3
>>> reading("Cc1cn(-c2cncc3[nH]c(-c4n[nH]c5ccc(-c6cncc(OCCN(C)C)c6)nc45)nc23)cn1 [Compound 599]")
6.3

Field: next compound
Given item CS(=O)(=O)NCc1cc(F)cc(-c2cncc3[nH]c(-c4n[nH]c5ccc(-c6cncc(NC(=O)c7ccccc7)c6)nc45)nc23)c1 [Compound 459] , the value recorded as its inhibition at 10 µM is 9.6

* * *

Attribute: inhibition at 10 µM
System: Wnt activity (Sp5-Luc reporter, human Sp5 promoter with eight TCF/LEF binding sites) in SW480 colon carcinoma cells
Assay: Screening assay for Wnt activity: Sp5-Luc reporter gene assay in SW480 cells
Assay type: cell-based
Conditions: 10 μM, read-out: percent inhibition at 10 μM (given for EC50 of >10 μM)
# output: bare number, implied unit %

>>> reading("c1csc(-c2cncc3[nH]c(-c4n[nH]c5ccc(-c6ccncc6)nc45)nc23)c1")
12.7
>>> reading("O=C(CC1CCNCC1)Nc1cncc(-c2ccc3[nH]nc(-c4nc5c(-c6ccsc6)cncc5[nH]4)c3n2)c1")
30.6
>>> reading("CS(=O)(=O)NCc1cc(F)cc(-c2cncc3[nH]c(-c4n[nH]c5ccc(-c6cncc(NC(=O)CC7CCNCC7)c6)nc45)nc23)c1")
11.2
>>> reading("Cc1cn(-c2cncc3[nH]c(-c4n[nH]c5ccc(C6=CCNCC6)nc45)nc23)cn1")
6.8
>>> reading("Cc1cn(-c2cncc3[nH]c(-c4n[nH]c5ccc(-c6cncc(NC(=O)C(C)(C)C)c6)nc45)nc23)cn1")
0
>>> reading("CCC(=O)Nc1cncc(-c2ccc3[nH]nc(-c4nc5c(-c6cccc(F)c6)cncc5[nH]4)c3n2)c1")
12.3

Given item COc1cccc(-c2cncc3[nH]c(-c4n[nH]c5ccc(-c6cncc(OC7CCNCC7)c6)nc45)nc23)c1 , the value recorded as its inhibition at 10 µM is 25.8

Given item CCC(=O)Nc1cncc(-c2ccc3[nH]nc(-c4nc5c(-c6cccs6)cncc5[nH]4)c3n2)c1 , the value recorded as its inhibition at 10 µM is 2.4

* * *

Tested on: IL-6 in THP-1 cells
Experiment: Inhibition of IL-6 in LPS-stimulated THP-1 human monocyte cells (HTRF)
Type: cell-based
Settings: LPS, IL-6 HTRF, at 10 μM, read-out: percent inhibition in brackets (given for EC50 >10 μM)
Attribute: inhibition at 10 µM

Example results:
>>> reading("c1cc(-c2cncc3[nH]c(-c4n[nH]c5ccc(-c6cncc(CNCC7CCCC7)c6)nc45)nc23)co1")
"24.5%"
>>> reading("Cc1cn(-c2cncc3[nH]c(-c4n[nH]c5ccc(-c6cncc(NC(=O)C7CCC7)c6)nc45)nc23)cn1")
"36.5%"
>>> reading("CCCCC(=O)Nc1cncc(-c2ccc3[nH]nc(-c4nc5c(-c6cc(F)cc(NCCN(C)C)c6)cncc5[nH]4)c3n2)c1")
"31.5%"

Given item Fc1cccc(-c2cncc3[nH]c(-c4n[nH]c5ccc(-c6ccncc6)nc45)nc23)c1 , the value recorded as its inhibition at 10 µM is 8.6%

Given item c1ccc(COc2cncc(-c3ccc4[nH]nc(-c5nc6c(-c7ccncc7)cncc6[nH]5)c4n3)c2)cc1 , the value recorded as its inhibition at 10 µM is 50.3%

Given item COc1cccc(-c2cncc3[nH]c(-c4n[nH]c5ccc(-c6cncc(OC7CCNCC7)c6)nc45)nc23)c1 , the value recorded as its inhibition at 10 µM is 34.1%

Given item CC(C)C(=O)Nc1cncc(-c2ccc3[nH]nc(-c4nc5c(-c6ccccc6F)cncc5[nH]4)c3n2)c1 , the value recorded as its inhibition at 10 µM is 28.2%
